# TESTED TARGET: full-length human GLP-1R with an N-terminal FLAG tag, overexpressed on HEK-293T cells (human, UniProt P43220 24-463)
# ASSAY PROCEDURE: cell-based or functional assay
Starred links: 1 amine or outer side, 2 acyl side, 3 side chain; linkers in the order of their positions; H or OH if unused. Non-standard residues stand in square brackets, D forms with d. Groups on a side chain read outwards from the residue. No end group written: not given here. *: point of attachment. C16 diacid = O=C(O)CCCCCCCCCCCCCCC(=O)*; γGlu = O=C(O)[C@H](CCC(=O)[*:2])N[*:1]; NMeY = CN[C@@H](Cc1ccc(O)cc1)C(=O)O; Palmitoyl = CCCCCCCCCCCCCCCC(=O)*; AEEA = NCCOCCOCC(=O)O; Aib = CC(C)(N)C(=O)O; C16 = lipid C16
// reported Human GLP1R cAMP HEK293T EC50 for each item listed
Reply numerically in nM, unit not repeated.

Enquiry: Fill in: Human GLP1R cAMP HEK293T EC50 of Me-Y[Aib]EGTFISDYSIAK([AEEA-AEEA-γGlu-C16 diacid])DRIAQ[Aib]NFVNWLLAQK [Compound 196] is ___
Return: 692

Enquiry: Data request, read-out Human GLP1R cAMP HEK293T EC50, for YXEGTFISDYSIXXDRXAQXNFVNWLLAQSPSSGAPPPS (N-terminal Me (Me-Tyr1); Aib at 2, 13, 17, 20; Km = Lys(R) at 14, linker printed GS (read as G5 = GGGGG), lipid C15DA (C15 diacid); C-terminal OH) [Compound 187]
Return: 51.3

Enquiry: Could you share which Human GLP1R cAMP HEK293T EC50 value was measured for [NMeY][Aib]EGTFISDYSI[Aib]LDR[Aib]AQ[Aib]K([AEEA-AEEA-γGlu-γGlu-Palmitoyl])FVNWLLAQRG-OH (not fully specified (N-terminus)) [Compound 203] ?
Return: 2.63

Enquiry: Give the measured Human GLP1R cAMP HEK293T EC50 of Me-Y[Aib]EGTFISDYSIALDR[Aib]HQ[Aib]NFVNWK([γGlu-C16])LAQR-NH2 [Compound 190] .
Return: 1000

The measured values listed here are drawn from patent US20220227830A1.
